Parameter Tm: see the listing below.
ASSAY_DETAILS: melting temperature; fluorescence melt of hairpins on a sequencing array, two-state fit, raised by 9.35 °C to match UV melts
RECORDED_CONDITIONS: sodium 0.088 M
QUANTITY_KIND: Tm (°C)

1) GCGGAAACCCGC ((((....))))    50.2
2) GATCCGACTCCGGATC ((((((....))))))    55.1
3) GCAGTCGAAAGACTTTGC ((((((....)))..)))    35.7
4) GTGTCAGGAAACTGACGC (.(((((....))))).)    55.4
5) GGACTTGGAAACAAGCCC ((.((((....)))).))    46.1
6) GACGGCCGAAAGGCTGTC (((.(((....))).)))    68.8
